- Tested on: L1210 cells
- MEASUREMENT_DESCRIPTION: Polyamine pool analysis in L1210 cells
- Format: cell-based, murine
- EXPERIMENTAL_PARAMETERS: intracellular amount; 500 μM, 48 hours
Structures can show the parent of a compound that is named as a salt.
Classify: met when Analogue is strictly less than 5 nmol/10^6 cells; not met when Analogue is not.

Below 5 nmol/10^6 cells on Analogue? Entry CCNCCCNCCCNCC [DENSPD, Trihydrochloride]
met

Please answer likewise for NCCCCNCCCCN [HSPD, Homospermidine Trihydrochloride]
met

Please answer likewise for NCCCCCNCCCCCN [5,5-Triamine, 1,7,13-Triazatridecane Trihydrochloride]
met

Please answer likewise for CCCNCCCCNCCCN [MPSPD(N8), N^8-Propylspermidine Trihydrochloride]
not met

Please answer likewise for CCCNCCCCNCCCCNCCC [DPHSPD, Trihydrochloride]
met

Please answer likewise for CCCNCCCNCCCNCCC [DPNSPD, Trihydrochloride]
met

###

- Tested on: L1210 cells
- MEASUREMENT_DESCRIPTION: Metabolic transformation of polyamine analogues by L1210 cells
- Format: in vitro ADME, murine
- EXPERIMENTAL_PARAMETERS: 48 hours, 100 μM analogue
Counter-ions that a name gives are not always drawn.
MEASUREMENT_LABEL: Parent drug in L1210 cells (pmols/10^6)
# value in pmols/10^6; strip the unit string

compound="CCCNCCCNCCCCN [MPSPD(N1), N^1-Propylspermidine Trihydrochloride]" measurement_label="Parent drug in L1210 cells" unit_string=pmols/10^6 value_measured=4238
compound="CCNCCCNCCCCN [MESPD(N1), N^1-Ethylspermidine Trihydrochloride]" measurement_label="Parent drug in L1210 cells" unit_string=pmols/10^6 value_measured=3946
compound="CCCNCCCCCNCCCCNCCC [DP(4,5), 4,9,15-Triazaoctadecane Trihydrochloride]" measurement_label="Parent drug in L1210 cells" unit_string=pmols/10^6 value_measured=1325
compound=CCNCCCCNCCCCNCCCCNCC measurement_label="Parent drug in L1210 cells" unit_string=pmols/10^6 value_measured=4215

Return reported Parent drug in L1210 cells; argument: CCCNCCCNCCCN [MPNSPD, N^1-Propylnorspermidine Trihydrochloride]
3019

Please answer likewise for CCNCCCCNCCCNCC [DESPD, Trihydrochloride]
4041

Please answer likewise for CCNCCCNCCCN
3051

Please answer likewise for CCNCCCCNCCCCNCC [DEHSPD, Trihydrochloride]
4215

Please answer likewise for CCNCCCCCNCCCCNCC [DE(4,5), 3,8,14-Triazahexadecane Trihydrochloride]
4215

Please answer likewise for CCCNCCCCNCCCNCCC [DPSPD, Trihydrochloride]
3260

Please answer likewise for CCNCCCCNCCCN [MESPD(N8), N^8-Ethylspermidine Trihydrochloride]
4825

###

- Tested on: L1210 cells
- MEASUREMENT_DESCRIPTION: Polyamine pool analysis in L1210 cells
- Type: cell-based, murine
- EXPERIMENTAL_PARAMETERS: Mus musculus, L1210, 48 h, % of untreated control, 100 μM, read-out: Spm
- Experimental: The following guidelines were adopted for studying the impact of the analogues on polyamine pools (Table 2). The measurements were made after a 48-hour exposure to the analogue, and two different concentrations of analogue were evaluated in each case. The cells were washed twice with cold RPMI-1640, and the pellet was treated with 0.6 N HClO4 (1 ml/10^7 cells). […]
Counter-ions that a name gives are not always drawn.
Classify: criterion met when activity at 100 µM is strictly less than 70%; criterion not met when activity at 100 µM is not.

compound="CCCNCCCCNCCCCNCCC [DPHSPD, Trihydrochloride]" category="criterion not met"
compound="CCCNCCCCNCCCNCCC [DPSPD, Trihydrochloride]" category="criterion not met"
compound="CNCCCCNCCCNC [DMSPD, Trihydrochloride]" category="criterion met"
compound="CCCNCCCCNCCCCN [MPHSPD, Trihydrochloride]" category="criterion not met"
compound="CNCCCCNCCCCNC [DMHSPD, Trihydrochloride]" category="criterion not met"

Below 70% on activity at 100 µM? Entry CCCNCCCNCCCN [MPNSPD, N^1-Propylnorspermidine Trihydrochloride]
criterion met

Please answer likewise for CNCCCNCCCNC [DMNSPD, Trihydrochloride]
criterion met

Please answer likewise for CCNCCCCNCCCNCC [DESPD, Trihydrochloride]
criterion not met

Please answer likewise for NCCCCCNCCCCCN [5,5-Triamine, 1,7,13-Triazatridecane Trihydrochloride]
criterion met

Please answer likewise for CCNCCCCNCCCN [MESPD(N8), N^8-Ethylspermidine Trihydrochloride]
criterion not met

###

- Tested on: L1210 cells
- MEASUREMENT_DESCRIPTION: Metabolic transformation of polyamine analogues by L1210 cells
- Assay type: in vitro ADME, murine
- EXPERIMENTAL_PARAMETERS: 48 hours, 100 μM analogue
- Method: The cells were washed twice with cold RPMI-1640, and the pellet was treated with 0.6 N HClO4 (1 ml/10^7 cells). Polyamine contents of the perchloric acid extracts were quantitated by HPLC of the DANSYL derivatives [Bergeron et al, J. Med. Chem., Vol. 37, supra].
Where a name gives a salt, the structure may show the parent alone.
MEASUREMENT_LABEL: Parent drug in L1210 cells (pmols/10^6)
# value in pmols/10^6; strip the unit string

Observe how each entry below is paired with its result.
molecule="CNCCCCNCCCCNC [DMHSPD, Trihydrochloride]" assayed_system="L1210 cells" measurement_label="Parent drug in L1210 cells" value_measured=5500
molecule="CNCCCCNCCCNC [DMSPD, Trihydrochloride]" assayed_system="L1210 cells" measurement_label="Parent drug in L1210 cells" value_measured=5000
molecule="CNCCCNCCCNC [DMNSPD, Trihydrochloride]" assayed_system="L1210 cells" measurement_label="Parent drug in L1210 cells" value_measured=5000
molecule=CCCNCCCNCCCNCCCNCCC assayed_system="L1210 cells" measurement_label="Parent drug in L1210 cells" value_measured=893

Return reported Parent drug in L1210 cells; argument: CCCNCCCCNCCCN [MPSPD(N8), N^8-Propylspermidine Trihydrochloride]
3549

Please answer likewise for CCCNCCCNCCCNCCC [DPNSPD, Trihydrochloride]
404

###

Listing of recorded Parent drug in L1210 cells by entry.
- Test system: L1210 cells
- MEASUREMENT_DESCRIPTION: Metabolic transformation of polyamine analogues by L1210 cells
- Assay type: in vitro ADME, murine
- EXPERIMENTAL_PARAMETERS: 48 hours, 500 μM analogue
Counter-ions that a name gives are not always drawn.
# value in pmols/10^6; strip the unit string

Observe how each entry below is paired with its result.
compound="CCCNCCCCNCCCCNCCC [DPHSPD, Trihydrochloride]" value_measured=3149
compound="CCNCCCNCCCNCC [DENSPD, Trihydrochloride]" value_measured=3761

Return reported Parent drug in L1210 cells; argument: CCCNCCCCCNCCCCCNCCC [DP(5,5), Trihydrochloride]
1300

Please answer likewise for CCNCCCNCCCNCCCNCC
2440

###

- System: L1210 cells
- MEASUREMENT_DESCRIPTION: Polyamine pool analysis in L1210 cells
- Type: cell-based, murine
- EXPERIMENTAL_PARAMETERS: Mus musculus, L1210, 48 h, % of untreated control, 100 μM, read-out: Spm
Counter-ions that a name gives are not always drawn.
MEASUREMENT_LABEL: activity at 100 µM
Put down the number, then write its unit next to it.

molecule=NCCCCNCCCN assayed_system="L1210 cells" value_measured=118%
molecule="CCCNCCCNCCCCN [MPSPD(N1), N^1-Propylspermidine Trihydrochloride]" assayed_system="L1210 cells" value_measured=90%
molecule="NCCCCCNCCCCN [4,5-Triamine, 1,6,12-Triazadodecane Trihydrochloride]" assayed_system="L1210 cells" value_measured=53%
molecule="CCCNCCCCNCCCN [MPSPD(N8), N^8-Propylspermidine Trihydrochloride]" assayed_system="L1210 cells" value_measured=103%

Next molecule, please.
Return reported activity at 100 µM; argument: CCCNCCCNCCCNCCC [DPNSPD, Trihydrochloride]
96%

###

Listing of recorded ODC activity, percent of untreated control by entry.
- Test system: ornithine decarboxylase (ODC)
- MEASUREMENT_DESCRIPTION: ODC activity in treated L1210 cells
- Type: cell-based, murine
- EXPERIMENTAL_PARAMETERS: L1210, 1 μM at 4 hours
Structures can show the parent of a compound that is named as a salt.

compound="NCCCCCNCCCCN [4,5-Triamine, 1,6,12-Triazadodecane Trihydrochloride]" value_measured="19% of untreated control"

Return reported ODC activity, percent of untreated control; argument: CCNCCCCCNCCCCCNCC [DE(5,5), Trihydrochloride]
100% of untreated control
